Data origin: paper PMC2229062

Test system: GK (G protein coupled to the muscarinic K+ channel IK.ACh)
Assay: inside-out patch clamp, inhibition of GTP-induced IK.ACh openings, Hill fit
Assay type: biochemical, Cavia porcellus
Settings: no agonist; against 10 µM GTP; same; assumed competitive with GTP
MEASUREMENT_NAME: pIC50
Note on units: pIC50 is unitless, being -log10 of a concentration expressed in mol/L.

Specify pIC50 for "Nc1nc2c(ncn2[C@@H]2O[C@H](COP(=O)(O)OP(=O)(O)O)[C@@H](O)[C@H]2O)c(=O)[nH]1" and stop.
6.29
